Tested on: IL-17A
Experiment description: IL-17 release from differentiated primary human T-cells (IL-17A HTRF assay)
Assay type: cell-based
Applied conditions: primary human CD4+ T cells differentiated into Th17 cells, 45-hour incubation, IL-17A in supernatant; read-out: hIL17 IC50

| Smiles representation | Unit spec | IC50 |
| --- | --- | --- |
| Cc1cc(-c2ccc(-n3nc(-c4noc(C)n4)c4c3[C@]3(C)C=C(C#N)C(=O)[C@H](C)[C@H]3CC4)cc2)cnn1 | nM | 126 |
| Cc1cc(-c2ccc(-n3nc(-c4nc(C)no4)c4c3[C@]3(C)C=C(C#N)C(=O)[C@H](C)[C@H]3CC4)cc2)cnn1 | nM | 223 |
| C[C@H]1C(=O)C(C#N)=C[C@@]2(C)c3nn(-c4ccccc4)c(-c4ccccc4)c3CC[C@H]12 | nM | 287 |
| C[C@H]1C(=O)C(C#N)=C[C@@]2(C)c3nc(-c4ccnc(N5CCOCC5)c4)n(-c4cccc(F)c4)c3CC[C@H]12 | nM | 128 |
| Cc1cnnc(-c2ccc(-n3nc(-c4ccc(F)cc4)c4c3[C@]3(C)C=C(C#N)C(=O)[C@H](C)[C@H]3CC4)cc2)c1 | nM | 45 |
| C[C@H]1C(=O)C(C#N)=C[C@@]2(C)c3nc(-c4cccc(-c5ccccc5)c4)n(-c4cccc(F)c4)c3CC[C@H]12 | nM | 117 |
| C[C@H]1C(=O)C(C#N)=C[C@@]2(C)c3nc(-c4ccnc5ccccc45)n(-c4cccc(F)c4)c3CC[C@H]12 | nM | 160 |
| CNc1nn(-c2ccc(-c3ccccc3)cc2)c2c1CC[C@@H]1[C@@H](C)C(=O)C(C#N)=C[C@@]21C | nM | 178 |
| CC(C)c1ccc(-c2nc3c(n2-c2cccc(F)c2)CC[C@@H]2[C@@H](C)C(=O)C(C#N)=C[C@@]32C)cc1 | nM | 73 |
| CC(C)c1ccc(-n2nc3c(c2-c2ccccc2)CC[C@@H]2[C@@H](C)C(=O)C(C#N)=C[C@@]32C)cc1 | nM | 61 |
| C[C@H]1C(=O)C(C#N)=C[C@@]2(C)c3c(c(-c4ccccc4)nn3-c3cccc4ccccc34)CC[C@H]12 | nM | 89 |
| C[C@H]1C(=O)C(C#N)=C[C@@]2(C)c3c(c(-c4ccc(CF)cc4)nn3-c3ccc(-c4ccccc4)cc3)CC[C@H]12 | nM | 16 |
| C[C@H]1C(=O)C(C#N)=C[C@@]2(C)c3c(c(-c4ccccc4F)nn3-c3nc4ccc(Cl)cc4s3)CC[C@H]12 | nM | 13 |
| CC(=O)n1c(-c2ccc(C(C)C)cc2)nc2c1CC[C@@H]1[C@@H](C)C(=O)C(C#N)=C[C@@]21C | nM | 368 |
| Cc1cc(-c2ccc(-n3nc(-c4ccc(F)cc4)c4c3[C@]3(C)C=C(C#N)C(=O)[C@H](C)[C@H]3CC4)cc2)cnn1 | nM | 9 |
| C[C@H]1C(=O)C(C#N)=C[C@@]2(C)c3c(c(-c4ccncn4)nn3-c3ccc(-c4cccnc4)cc3)CC[C@H]12 | nM | 91 |
| COc1ccc(-n2nc3c(c2-c2ccccc2)CC[C@@H]2[C@@H](C)C(=O)C(C#N)=C[C@@]32C)cc1 | nM | 191 |
| C[C@H]1C(=O)C(C#N)=C[C@@]2(C)c3nn(-c4ccc(-c5ccccc5)cc4)c(-c4ccccc4)c3CC[C@H]12 | nM | 56 |
| C[C@H]1C(=O)C(C#N)=C[C@@]2(C)c3c(c(-c4ccncn4)nn3-c3ccc(-c4cccc(F)c4)cn3)CC[C@H]12 | nM | 43 |
| CC(C)c1ncc(-c2nc3c(n2-c2cccc(F)c2)CC[C@@H]2[C@@H](C)C(=O)C(C#N)=C[C@@]32C)cn1 | nM | 138 |
| C[C@H]1C(=O)C(C#N)=C[C@@]2(C)c3c(c(-c4ccccc4)nn3Cc3ccccc3)CC[C@H]12 | nM | 119 |
| C[C@H]1C(=O)C(C#N)=C[C@@]2(C)c3nc(-c4cccc(Cl)c4)n(-c4cnn(C)c4)c3CC[C@H]12 | nM | 322 |
| C[C@H]1C(=O)C(C#N)=C[C@@]2(C)c3nn(-c4ccc(Cl)c(Cl)c4)c(-c4ccccc4)c3CC[C@H]12 | nM | 107 |
| C[C@H]1C(=O)C(C#N)=C[C@@]2(C)c3c(c(-c4ccccc4)nn3-c3cccc(-c4cccnc4)c3)CC[C@H]12 | nM | 87 |
| Cc1noc(-c2ccc(-n3nc(-c4ccc(F)cc4)c4c3[C@]3(C)C=C(C#N)C(=O)[C@H](C)[C@H]3CC4)cc2)n1 | nM | 27 |
| C[C@H]1C(=O)C(C#N)=C[C@@]2(C)c3c(c(-c4ccccc4F)nn3-c3nc(-c4ccccc4)cs3)CC[C@H]12 | nM | 27 |
| C[C@H]1C(=O)C(C#N)=C[C@@]2(C)c3c(c(-c4cccnc4)nn3-c3ccc(-c4ccnc(CF)c4)cc3)CC[C@H]12 | nM | 49 |
| C[C@H]1C(=O)C(C#N)=C[C@@]2(C)c3nn(-c4ccc(-c5ccccc5)cc4)c(-c4ccncc4)c3CC[C@H]12 | nM | 77 |

This collection of values is drawn from patent US11993574B2.
